Each entry below carries its reported Inh (% of Ctl) 2.5 μM.
biological target: rat PGT (Rattus norvegicus (Rat)); test: [3H]PGE2 uptake inhibition in MDCK cells stably transfected with rat PGT (percent inhibition and IC50); format: cell-based; conditions: 2.5 μM compound; inhibition of [3H]PGE2 uptake

>>> measurement("COc1cccc(CNC(=O)c2ccc(Nc3nc(NCCOCCOCCNC(=O)c4ccccc4)nc(Nc4ccc(O)cc4)n3)cc2)c1 [compound 88]")
"82.6 % of Ctl"
>>> measurement("O=C(NCCOCCOCCNc1nc(Nc2ccc(O)cc2)nc(Nc2ccc(C(=O)NCc3cccc(Cl)c3)cc2)n1)c1ccccc1 [compound 87]")
"83.5 % of Ctl"
>>> measurement("O=C(NCCOCCOCCNc1nc(Nc2ccc(O)cc2)nc(Nc2ccc(C(=O)NCc3ccc(C(F)(F)F)cc3)cc2)n1)c1ccccc1 [compound 113]")
"84.1 % of Ctl"

Please turn your attention to the following entry.
Q. For O=C(NCCOCCOCCNc1nc(Nc2ccc(O)cc2)nc(Nc2ccc(C(=O)NCc3ccc(F)cc3)cc2)n1)c1ccccc1 [compound 99] , write its Inh (% of Ctl) 2.5 μM.
A. 77.1 % of Ctl
